We begin with a simple list: items and their reported PD-1 agonism EC50, PathHunter Checkpoint Signaling Assay.
target under test: Programmed cell death protein 1 (PD-1), human (human, UniProt Q15116 25-167, limits assumed)
Sequence (Q15116 25-167 limits assumed): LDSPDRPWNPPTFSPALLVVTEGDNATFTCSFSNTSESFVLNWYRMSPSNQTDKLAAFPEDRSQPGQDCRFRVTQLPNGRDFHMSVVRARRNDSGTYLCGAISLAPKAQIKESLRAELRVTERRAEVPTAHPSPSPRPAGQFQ
protocol details: cell-based or functional assay
readout kind: PD-1 agonism EC50, PathHunter Checkpoint Signaling Assay (nM)

{"binder": "1-F09-1 (antibody, V domains shown, From the in vitro scFv library of immunised mice) VH: QVQLQQPGAEVVMPGASVKLSCKASGYTFTSYWMHWVKQRPGQGLEWIGVIDPSDSYTQYNQKFKGKATLTVDTSSSTAYMQLSSLTSEDSAVYYCARSPFDYWGQGTTLTVSS VL: DIQMNQSHKFMSTSVGDRVSITCKASQDVSTAVAWYQQKPGQSPKALIYSASNRYSGVPDRFIGSGSGTDFTLTIRNVQSEDLAEYFCQQHNSYPFTFGGGTKLEMK", "reading": 1.1}
{"binder": "2-D11-1 (antibody, V domains shown, From the in vitro scFv library of immunised mice) VH: EVQLQQPGAELVRPGTSVKLACKASGYTFNTYWMHWVNQRPGQGLEWIGVIDPSDSYTQYNQKFKGKATLTVDTSSSTAYMQLSSLTSEDSAVYYCARSPFDYWGQGTTLTVSS VL: DVQMTQSQKFMSTSVGDRVSVTCKASQNVGTNVAWYQQKPGQSPKALIYSASYRYSGVPDRFIGSGSGTDFTLTISNVQSEDLAEYFCQQHNSYPFTFGGGTKLEIK", "reading": 1.2}
{"binder": "1-F12-1 (antibody, V domains shown, From the in vitro scFv library of immunised mice) VH: EVQLQQPGAELVRPGTSVKLSCKASGYTFTSYWMHWVKQRPGQGLEWIGVIDPSDSYTQYNQKFKGKATLTVDTSSSTAYMQLSSLTSEDSAVYYCARSPFDYWGQGTTVTVSS VL: DIVMTQSHKFMSTSVGDRVSITCKASQDVSTAVAWYQQKPGQSPKALIYSASYRYSGVPDRFTGSGSGTDFTLTISNVQAEDLAVYYCHQHNTYPFTFGGGTKLEIK", "reading": 1.6}
{"binder": "1-H01-1 (antibody, V domains shown, From the in vitro scFv library of immunised mice; also called clone 1-H01-1) VH: QVQLQQPGAELVKPGASVKMSCKASGYTFTSYWMHWVKQRPGQGLEWIGVIDPSNSYTIYNQKFKGKATLTVDTSSSTAYMQLSSLTSEDSAVYYCARSPFDYWGQGTTLTVSS VL: DVVMTQSQKFMSTSVGDRVSVTCKASQNVGTNVAWYQQKPGQSPKALIYSASYRYSGVPDRFTGSGSGTDFTLTIRNVQSEDLAEYFCQQHNSYPFTFGGGTKLEIK", "reading": 0.9}
{"binder": "1-C09-1 (antibody, V domains shown, From the in vitro scFv library of immunised mice) VH: QVQLQQPGTELVRPGTSVKMSCKASGYTFTSYWMHWVKQRPGQGLEWIGVIDPSDSYTQYNQKFKGKATLTVDTSSSTAYMQLSSLTSEDSAVYYCARSPFDYWGQGTTLTVSS VL: DIVMTQSQKFMSTSVGDRVSVTCKASQNVGTNVAWYQQKPGQSPKALIYSASYRYSGIPDRFTGSGSGTDFTLTISNVQSEDLADFFCQQYNSYPFTFGGGTKLEIK", "reading": 1.4}
{"binder": "1-C09-3 (antibody, V domains shown, From the in vitro scFv library of immunised mice) VH: QVQLQQPGAELVRPGTSVKLSCKASGYTFTSYWMHWVKERPGQGLEWIGVIDPSDSYTNYNQKFKDKATLTVDTSSSTAYMQLSSLTSEDSAVYYCARSPFDYWGQGTTLTVSS VL: DIQMTQSQKFMSTSVGDRVSVTCKASQNVGTNVAWYQQKPGQSPKALIYSASYRYSGVPDRFIGSGSGTDFTLTIRNVQSEDLAEYFCQQHNSYPFTFGGGTKLEIK", "reading": 1.1}
